Tested on: XBP1s-luc 293 LUC
Test: cellular PD assay, XBP1s-LUC reporter (Example 903)
Type: cell-based
Conditions: Table 2; hydrochloride; read-out: XBP1s-luc 293 LUC (IC50)
Procedure: Inhibition of IRE1α RNase activity was determined in an enzyme assay that measured cleavage of the XBP1 stem loop by autophosphorylated IRE1α. […] Compounds were also profiled in cellular assays by direct measurement of XBP s (B-DNA assay) or by quantification of the luciferase signal in HT1080 XBP1-Luc, which carries a luciferase fusion that is only in frame and expressed from the spliced XBP1 transcript. […]
Where a name gives a salt, the structure may show the parent alone.
readout type: IC50 (µM)
All answers are understood in µM, so give the number only.

Request: Quick one: IC50 of Cc1ccc2c(NS(=O)(=O)CC(C)C(F)(F)F)c(F)ccc2c1Oc1ncccc1-c1ccnc(N[C@H]2CCCNC2)n1 (single isomer, unassigned) [Example 455, hydrochloride] ?
Result: 0.018
